Biological target: SARS-CoV-2 Mpro (Severe acute respiratory syndrome coronavirus 2, UniProt P0DTD1)
Assay: biochemical
Assay type: biochemical
Conditions: first determination; 4-parameter IC50 fit
Where a SMILES comes first, the peptide text is derived from it. [ ]: non-standard residue; d: D form. The star is where a group is joined. Met(O2) = CS(=O)(=O)CC[C@H](N)C(=O)O; Ala(cPr) = N[C@@H](CC1CC1)C(=O)O; Cbz = O=C(OCc1ccccc1)*
property: Hill slope
Number only, please.

[[record]]
compound = "N#C[C@H](C[C@@H]1CCNC1=O)NC(=O)[C@H](CC1CC1)NC(=O)OCc1ccccc1"
property = "Hill slope"
experimental_value = 1.1

[[record]]
compound = "CS(=O)(=O)CC[C@@H](C=O)NC(=O)[C@H](CC1CC1)NC(=O)OCc1ccccc1 [Compound 4] (Cbz-[Ala(cPr)]-[Met(O2)]-aldehyde)"
property = "Hill slope"
experimental_value = 1.0


INPUT: Consider the compound `COc1cccc2[nH]c(C(=O)N[C@@H](CC3CC3)C(=O)N[C@H](C#N)C[C@@H]3CCNC3=O)cc12` . State its measured Hill slope.
OUTPUT: 1.0

INPUT: // Input: `O=C[C@H](C[C@@H]1CCNC1=O)NC(=O)[C@H](CC1CC1)NC(=O)OCc1ccccc1` . Output its Hill slope only.
OUTPUT: 2.7

INPUT: Specify Hill slope for `COc1cccc2[nH]c(C(=O)N[C@@H](CC3CC3)C(=O)N[C@H](C=O)C[C@@H]3CCNC3=O)cc12` and stop.
OUTPUT: 3.1

INPUT: Return the recorded Hill slope value; entry: `COc1cccc2[nH]c(C(=O)N[C@@H](CC3CC3)C(=O)N[C@H](C=O)CCS(C)(=O)=O)cc12`
OUTPUT: 1.5

INPUT: Answer with the recorded Hill slope for the compound listed here: `COc1cccc2[nH]c(C(=O)N[C@@H](CC3CC3)C(=O)N[C@H](C#N)CCS(C)(=O)=O)cc12`
OUTPUT: 0.6

* * *

Target: SARS-CoV-2 Mpro (Severe acute respiratory syndrome coronavirus 2)
Assay: biochemical
Type: biochemical
Conditions: Kinetics N = 2 (95% CI), first determination; Morrison fit; 1 nM Mpro, 800 mM citrate buffer, 15 min preincubation
pKi: −log10 of the molar value.
property: pKi

INPUT: Please give the documented pKi of `CS(=O)(=O)CC[C@@H](C#N)NC(=O)[C@H](CC1CC1)NC(=O)OCc1ccccc1`
OUTPUT: < 4.90

* * *

Target: SARS-CoV-2 Mpro (Severe acute respiratory syndrome coronavirus 2, UniProt P0DTD1)
Assay: biochemical
Format: biochemical
Conditions: second determination; 4-parameter IC50 fit
Where a SMILES comes first, the peptide text is derived from it. [ ]: non-standard residue; d: D form. The star is where a group is joined. Met(O2) = CS(=O)(=O)CC[C@H](N)C(=O)O; Ala(cPr) = N[C@@H](CC1CC1)C(=O)O; Cbz = O=C(OCc1ccccc1)*
Here, each record is paired with measured Hill slope data.
// keep it numeric: no unit symbol after the value

[[record]]
compound = "N#C[C@H](C[C@@H]1CCNC1=O)NC(=O)[C@H](CC1CC1)NC(=O)OCc1ccccc1 [Compound 6]"
subject_of_test = "SARS-CoV-2 Mpro (Severe acute respiratory syndrome coronavirus 2, UniProt P0DTD1)"
property = "Hill slope"
experimental_value = 1.0

[[record]]
compound = "CS(=O)(=O)CC[C@@H](C=O)NC(=O)[C@H](CC1CC1)NC(=O)OCc1ccccc1 [Compound 4] (Cbz-[Ala(cPr)]-[Met(O2)]-aldehyde)"
subject_of_test = "SARS-CoV-2 Mpro (Severe acute respiratory syndrome coronavirus 2, UniProt P0DTD1)"
property = "Hill slope"
experimental_value = 1.0

[[record]]
compound = "O=C[C@H](C[C@@H]1CCNC1=O)NC(=O)[C@H](CC1CC1)NC(=O)OCc1ccccc1 [Compound 2]"
subject_of_test = "SARS-CoV-2 Mpro (Severe acute respiratory syndrome coronavirus 2, UniProt P0DTD1)"
property = "Hill slope"
experimental_value = 2.5

[[record]]
compound = "COc1cccc2[nH]c(C(=O)N[C@@H](CC3CC3)C(=O)N[C@H](C=O)C[C@@H]3CCNC3=O)cc12 [Compound 1]"
subject_of_test = "SARS-CoV-2 Mpro (Severe acute respiratory syndrome coronavirus 2, UniProt P0DTD1)"
property = "Hill slope"
experimental_value = 2.0


INPUT: Indicate the recorded Hill slope value for this compound: COc1cccc2[nH]c(C(=O)N[C@@H](CC3CC3)C(=O)N[C@H](C=O)CCS(C)(=O)=O)cc12 [Compound 3]
OUTPUT: 1.5

INPUT: Supply recorded Hill slope for COc1cccc2[nH]c(C(=O)N[C@@H](CC3CC3)C(=O)N[C@H](C#N)C[C@@H]3CCNC3=O)cc12 [Compound 5] here.
OUTPUT: 1

* * *

Molecular target: SARS-CoV-2 Mpro (Severe acute respiratory syndrome coronavirus 2)
Assay: biochemical
Assay type: biochemical
Settings: Kinetics N = 2 (95% CI), second determination; Morrison fit; 1 nM Mpro, 800 mM citrate buffer, 15 min preincubation
property: Ki

INPUT: Query Ki for CS(=O)(=O)CC[C@@H](C#N)NC(=O)[C@H](CC1CC1)NC(=O)OCc1ccccc1 [Compound 8]
OUTPUT: > 12.5 µM

* * *

Molecular target: SARS-CoV-2 Mpro (Severe acute respiratory syndrome coronavirus 2)
Assay: Covalent bond (adduct) formation kinetics by IR-MALDESI intact protein MS
Format: binding
Settings: SPR buffer, quenched with 200 μM compound 9, 10 μM compound and Mpro; Figure S5
Where a SMILES comes first, the peptide text is derived from it. [ ]: non-standard residue; d: D form. The star is where a group is joined. Met(O2) = CS(=O)(=O)CC[C@H](N)C(=O)O; Ala(cPr) = N[C@@H](CC1CC1)C(=O)O; Cbz = O=C(OCc1ccccc1)*
property: kobs (95 % CI) Quenched, SPR (Min -1)
Provide the reading as a plain figure in Min -1.

INPUT: Lab note: SARS-CoV-2 Mpro (Severe acute respiratory syndrome coronavirus 2) assay, enter kobs (95 % CI) Quenched, SPR for COc1cccc2[nH]c(C(=O)N[C@@H](CC3CC3)C(=O)N[C@H](C=O)CCS(C)(=O)=O)cc12 [Compound 3] here
OUTPUT: 0.18

INPUT: Please indicate recorded kobs (95 % CI) Quenched, SPR of O=C[C@H](C[C@@H]1CCNC1=O)NC(=O)[C@H](CC1CC1)NC(=O)OCc1ccccc1 [Compound 2] measured with SARS-CoV-2 Mpro (Severe acute respiratory syndrome coronavirus 2).
OUTPUT: 0.49

INPUT: Give reported kobs (95 % CI) Quenched, SPR for COc1cccc2[nH]c(C(=O)N[C@@H](CC3CC3)C(=O)N[C@H](C#N)C[C@@H]3CCNC3=O)cc12 [Compound 5] (SARS-CoV-2 Mpro (Severe acute respiratory syndrome coronavirus 2))
OUTPUT: 1.2

INPUT: Give SARS-CoV-2 Mpro (Severe acute respiratory syndrome coronavirus 2) kobs (95 % CI) Quenched, SPR for the following compound: CS(=O)(=O)CC[C@@H](C=O)NC(=O)[C@H](CC1CC1)NC(=O)OCc1ccccc1 [Compound 4] (Cbz-[Ala(cPr)]-[Met(O2)]-aldehyde)
OUTPUT: 0.29

INPUT: Please indicate recorded kobs (95 % CI) Quenched, SPR of N#C[C@H](C[C@@H]1CCNC1=O)NC(=O)[C@H](CC1CC1)NC(=O)OCc1ccccc1 [Compound 6] measured with SARS-CoV-2 Mpro (Severe acute respiratory syndrome coronavirus 2).
OUTPUT: 0.08

INPUT: Enter recorded kobs (95 % CI) Quenched, SPR with SARS-CoV-2 Mpro (Severe acute respiratory syndrome coronavirus 2) for COc1cccc2[nH]c(C(=O)N[C@@H](CC3CC3)C(=O)N[C@H](C=O)C[C@@H]3CCNC3=O)cc12 [Compound 1] here.
OUTPUT: 0.13
